Quick reference for λmax With DTT (10 equiv) among some molecules
experiment: UV study of Michael adduct formation with DTT; format: physicochemical; details: 0.1 mM compound, 1 mM DTT, phosphate buffer saline-1% ethanol (pH 7.4), rt
A number alone suffices; assume nm.

Before answering, review these 5 worked examples.
// field: λmax With DTT (10 equiv); key: C#CC12C=C(C#N)C(=O)C=C1c1c(Cl)cccc1CC2 (stereo not shown) [Compound 11] ; value = 380

// field: λmax With DTT (10 equiv); key: C#CC12C=C(C#N)C(=O)C=C1c1c(C)cccc1CC2 (stereo not shown) [Compound 13] ; value = 374

// field: λmax With DTT (10 equiv); key: C#CC12C=C(C#N)C(=O)C=C1c1ccccc1CC2 (stereo not shown) [Compound 10] ; value = 382

// field: λmax With DTT (10 equiv); key: C#CC12C=C(C#N)C(=O)C=C1CCC2 (stereo not shown) [Compound 7] ; value = 337

// field: λmax With DTT (10 equiv); key: C#CC1(C=C)C=CC(=O)C(C#N)=C1 (stereo not shown) [Compound 5] ; value = 338

New cases:
// field: λmax With DTT (10 equiv); key: C#CC1(CC)C=CC(=O)C(C#N)=C1 (stereo not shown) [Compound 6] ; value = 335

// field: λmax With DTT (10 equiv); key: C#CC12C=C(C#N)C(=O)C=C1c1c(Cl)cccc1C2 (stereo not shown) [Compound 15] ; value = 383

// field: λmax With DTT (10 equiv); key: C#CC1(C)C=C(C#N)C(=O)c2ccccc21 (stereo not shown) [Compound 9] ; value = 333

// field: λmax With DTT (10 equiv); key: C#CC12C=C(C#N)C(=O)C=C1C(C)(C)CC2 (stereo not shown) [Compound 8] ; value = 337

// field: λmax With DTT (10 equiv); key: C#CC12C=C(C#N)C(=O)C=C1c1ccccc1C2 (stereo not shown) [Compound 14] ; value = 382
